Notes on GI50 obtained with MDA-MB-468 breast cancer cells.

[
  {
    "STRUCTURE STRING": "Cc1cccc(C)c1-c1cc2nc(Nc3cccc(N4CCOCC4)c3)ncc2[nH]1",
    "GI50": "1000 to 10000 nM"
  },
  {
    "STRUCTURE STRING": "Cc1ccccc1-c1cc2nc(Nc3cccc(N4CCOCC4)c3)ncc2[nH]1",
    "GI50": "≤ 1000 nM"
  },
  {
    "STRUCTURE STRING": "Cc1ccccc1-c1cc2nc(Nc3cccc(N4CCN(C)CC4)c3)ncc2[nH]1",
    "GI50": "≤ 1000 nM"
  },
  {
    "STRUCTURE STRING": "Cc1ccccc1-c1cc2nc(Nc3ccc(OC4CCN(C)CC4)cc3)ncc2[nH]1",
    "GI50": "1000 to 10000 nM"
  }
]

Moving on to another molecule below.
Name the recorded GI50 for Fc1ccccc1-c1cc2nc(Nc3cccc(N4CCOCC4)c3)ncc2[nH]1 . ≤ 1000 nM

Recorded values, source patent US10239881B2.
